- Test system: ACHN
- Method: NCI tumour cell line growth inhibition, 48 h
Calls of active or inactive are those of the source. Rule as the data show it: active = GI50 up to about 1.1 µM and inactive = higher.
Outcomes: Y (active), N (inactive)

>  <Molecule>
CCCC(=O)O[C@H]1C=C2C[C@@]34SS[C@]5(CC6=C[C@H](OC(C)=O)[C@@H]7O[C@@H]7[C@H]6N5C3=O)C(=O)N4[C@@H]2[C@H]2O[C@H]21

>  <System under test>
ACHN

>  <Group label>
Y

$$$$
>  <Molecule>
CCN(CC)c1ccc2cc(C(=O)Nc3nc(C45CC6CC(CC(C6)C4)C5)cs3)c(=O)oc2c1

>  <System under test>
ACHN

>  <Group label>
N

$$$$
>  <Molecule>
C=C(Cl)C(=C)CCC(Cl)C(C)C (stereo unspecified)

>  <System under test>
ACHN

>  <Group label>
N

$$$$
>  <Molecule>
Nc1ccc(C(=O)Nn2c(-c3ccccc3)nc3ccccc3c2=O)cc1

>  <System under test>
ACHN

>  <Group label>
N

$$$$
>  <Molecule>
CC(N)CC(=O)O (stereo unspecified)

>  <System under test>
ACHN

>  <Group label>
N

$$$$
>  <Molecule>
NC(=S)N/N=C/C(O[C@@H](/C=N/NC(N)=S)CO)n1cnc2c(N)ncnc21 (stereo partly specified)

>  <System under test>
ACHN

>  <Group label>
N

$$$$
>  <Molecule>
O=c1[nH]cc(/C=N\Nc2ccccc2)c(=O)[nH]1

>  <System under test>
ACHN

>  <Group label>
N

$$$$
>  <Molecule>
N#CC(O)CCOCc1ccccc1 (stereo unspecified)

>  <System under test>
ACHN

>  <Group label>
N

$$$$
>  <Molecule>
CC/C=C\C/C=C\C/C=C\CCCCCCCC(=O)OCC(O)CO (stereo unspecified)

>  <System under test>
ACHN

>  <Group label>
N

$$$$
>  <Molecule>
C=CC(=O)N1C/C(=C\c2ccc([N+](=O)[O-])cc2)C(=O)/C(=C/c2ccc([N+](=O)[O-])cc2)C1

>  <System under test>
ACHN

>  <Group label>
Y

$$$$
>  <Molecule>
O=[N+]([O-])c1ccc(Sc2c3ccccc3nc3cc(Cl)ccc23)cc1

>  <System under test>
ACHN

>  <Group label>
N

$$$$
>  <Molecule>
CC(=O)Nc1ccc(-c2nnc(SCC(=O)Nc3cccc(C)c3)o2)cc1

>  <System under test>
ACHN

>  <Group label>
N

$$$$
>  <Molecule>
O=C1/C(=N/N=C(c2ccccc2)c2ccccc2)c2ccccc2-c2ccccc21

>  <System under test>
ACHN

>  <Group label>
N

$$$$
>  <Molecule>
CC12CCC(O)CC1CCC1C2CCC2(C)C(C(=O)CC(O)C(F)(F)F)CCC12 (stereo unspecified)

>  <System under test>
ACHN

>  <Group label>
N

$$$$
>  <Molecule>
Cc1cc(S(=O)(=O)Nc2nncn2-c2ccc(Cl)cc2)c(S)cc1Cl

>  <System under test>
ACHN

>  <Group label>
N

$$$$
>  <Molecule>
CC(C)CC(NC(=O)C(CCI)Cc1ccccc1)C(=O)Nc1ccccc1 (stereo unspecified)

>  <System under test>
ACHN

>  <Group label>
N

$$$$
>  <Molecule>
CCOP(=O)(OCC)C(Cc1c[nH]c2ccccc12)C(=O)O (stereo unspecified)

>  <System under test>
ACHN

>  <Group label>
N

$$$$
>  <Molecule>
Cc1cccc(N/C(Sc2ccccc2)=C(/C(Cl)=C(Cl)Cl)[N+](=O)[O-])c1

>  <System under test>
ACHN

>  <Group label>
N

$$$$
>  <Molecule>
Cc1cccc(/C=N/NC(=S)N(C)CCc2ccccn2)n1

>  <System under test>
ACHN

>  <Group label>
Y

$$$$
>  <Molecule>
O=C1CSC(c2ccc(Cl)cc2Cl)N1c1ccc(Oc2ccc(Cl)cc2)c(Cl)c1 (stereo unspecified)

>  <System under test>
ACHN

>  <Group label>
N

$$$$
>  <Molecule>
Cc1c(C)c2ccc3oc4ccccc4c3c2oc1=O

>  <System under test>
ACHN

>  <Group label>
N

$$$$
>  <Molecule>
CN(CCCNC(=O)c1n[nH]c2c1ccc1ccccc12)CCCNC(=O)c1n[nH]c2c1ccc1ccccc12

>  <System under test>
ACHN

>  <Group label>
N

$$$$
>  <Molecule>
CC(NC(=O)c1ccc(OP(=O)(OCC2=CC(=O)c3ccccc3C2=O)N(C)CCCCCl)cc1)c1ccc(OCC2CCCCC2)c(C(N)=O)c1 (stereo unspecified)

>  <System under test>
ACHN

>  <Group label>
N

$$$$
>  <Molecule>
CN=S(=O)(C[C@]1(O)CC2OC1C1OC(C)(C)OC21)c1ccccc1 (stereo partly specified)

>  <System under test>
ACHN

>  <Group label>
N

$$$$
>  <Molecule>
COc1ccc2nc(-c3ccc(O)cc3)cn2c1

>  <System under test>
ACHN

>  <Group label>
N

$$$$
>  <Molecule>
CN(C)C(=S)SCC(N)=O

>  <System under test>
ACHN

>  <Group label>
N

$$$$
>  <Molecule>
CC(=O)OCCCCn1cnc2c(Cl)nc(Nc3ccccc3)nc21

>  <System under test>
ACHN

>  <Group label>
N

$$$$
>  <Molecule>
Cc1ccc(Nc2n[nH]c(NS(=O)(=O)c3cc(C)c(Cl)cc3S)n2)cc1

>  <System under test>
ACHN

>  <Group label>
N

$$$$
>  <Molecule>
Cc1ccc(S(=O)(=O)OC(COC(=O)c2ccccc2)C(OS(=O)(=O)c2ccc(C)cc2)C(OS(=O)(=O)c2ccc(C)cc2)C(COC(=O)c2ccccc2)OS(=O)(=O)c2ccc(C)cc2)cc1 (stereo unspecified)

>  <System under test>
ACHN

>  <Group label>
N

$$$$
>  <Molecule>
CC1(C)OC[C@@H](O)[C@H](Br)CO1

>  <System under test>
ACHN

>  <Group label>
N

$$$$
>  <Molecule>
O=C(NCCOC(=O)CCCCCCCCC(=O)OCCNC(=O)NC(=O)c1cn(Cc2ccccc2)c(=O)[nH]c1=O)NC(=O)c1cn(Cc2ccccc2)c(=O)[nH]c1=O

>  <System under test>
ACHN

>  <Group label>
N

$$$$
>  <Molecule>
CSC1=Nc2ccccc2N(C)c2c1c(-c1ccccc1)nn2C

>  <System under test>
ACHN

>  <Group label>
N

$$$$
>  <Molecule>
Oc1ccccc1C1C=C(c2ccccc2)NC(N2CCCCC2)=C1c1nc2ccccc2[nH]1 (stereo unspecified)

>  <System under test>
ACHN

>  <Group label>
N

$$$$
>  <Molecule>
Cc1[nH]c2c(c1Cc1ccccc1)C1=NC=C(O)NN1C=N2

>  <System under test>
ACHN

>  <Group label>
N

$$$$
>  <Molecule>
[O-][S+]1SC(=S)C2C=CC=NC21 (stereo unspecified)

>  <System under test>
ACHN

>  <Group label>
N

$$$$
>  <Molecule>
Nc1nc(N)nc(CCCc2nc(N)nc(N)n2)n1

>  <System under test>
ACHN

>  <Group label>
N

$$$$
>  <Molecule>
CC1=C2C3OC(=O)C(C)C3C(O)C[C@@]2(C)C(=O)CC1 (stereo partly specified)

>  <System under test>
ACHN

>  <Group label>
N

$$$$
>  <Molecule>
COC(=O)c1ncc2c(=O)[nH]c3ccccc3c2c1C(=O)OC

>  <System under test>
ACHN

>  <Group label>
N

$$$$
>  <Molecule>
COc1cc2c(cc1O)CC[C@@H]1C2CC[C@@]2(C)C1CC[C@@H]2O (stereo partly specified)

>  <System under test>
ACHN

>  <Group label>
N

$$$$
>  <Molecule>
CC(C)(C)c1ccc(-n2c3nc(=O)n(-c4ccccc4CO)c(=O)c-3cc3ccccc32)cc1

>  <System under test>
ACHN

>  <Group label>
N

$$$$
>  <Molecule>
Cn1c(S)nc2c(Cl)cc(Cl)cc2c1=O

>  <System under test>
ACHN

>  <Group label>
N

$$$$
